- measured-on: human NE transporter (Homo sapiens)
- Construct: expressed in transfected cells; host or cells: MDCK cells
- Sequence (P23975 whole entry): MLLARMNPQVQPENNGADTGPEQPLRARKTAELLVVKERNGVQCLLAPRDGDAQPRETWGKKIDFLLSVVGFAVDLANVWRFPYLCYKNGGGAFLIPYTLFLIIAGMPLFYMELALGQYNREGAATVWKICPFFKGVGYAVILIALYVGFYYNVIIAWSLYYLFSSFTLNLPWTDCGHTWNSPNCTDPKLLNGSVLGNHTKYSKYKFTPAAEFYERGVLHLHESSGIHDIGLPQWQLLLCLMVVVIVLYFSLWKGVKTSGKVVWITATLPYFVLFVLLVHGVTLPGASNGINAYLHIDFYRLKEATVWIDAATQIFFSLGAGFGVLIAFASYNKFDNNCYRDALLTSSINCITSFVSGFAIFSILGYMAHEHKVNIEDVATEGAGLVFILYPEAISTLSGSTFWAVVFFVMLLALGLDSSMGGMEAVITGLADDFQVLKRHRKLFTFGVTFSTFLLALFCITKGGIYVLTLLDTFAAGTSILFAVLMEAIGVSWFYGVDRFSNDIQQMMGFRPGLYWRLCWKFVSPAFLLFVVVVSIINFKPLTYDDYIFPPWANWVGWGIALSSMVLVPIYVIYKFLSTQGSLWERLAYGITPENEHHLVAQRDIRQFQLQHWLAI
- method-description: Inhibition of [3H]NE uptake in cells expressing the recombinant human NE transporter
- Type: cell-based
- setup-conditions: 1 μM compound, MDCK cells expressing the NE transporter, read-out: Uptake inh. % at 1 μM NE
# maps each entry to its inhibition at 1 µM
The reply should be a number in %, with the unit left off.

{"molecule": "Clc1ccc2scc(C34CNCC3C4)c2c1 (stereo not shown)", "inhibition at 1 µM (%)": 50}
{"molecule": "CN1CC2CC2(c2cc3ccccc3s2)C1 (stereo not shown)", "inhibition at 1 µM (%)": 71}
{"molecule": "CN1C[C@H]2C[C@@]2(c2cc3ccccc3s2)C1", "inhibition at 1 µM (%)": 89}
{"molecule": "c1ccc2sc([C@@]34CNC[C@H]3C4)cc2c1", "inhibition at 1 µM (%)": 84}
{"molecule": "c1ccc2sc(C34CNCC3C4)cc2c1 (stereo not shown)", "inhibition at 1 µM (%)": 90}

Complete the entry with inhibition at 1 µM for CN1CC2CC2(c2ccc3c(ccn3C)c2)C1 (stereo not shown) 53

Complete the entry with inhibition at 1 µM for c1ccc2ncc(C34CNCC3C4)cc2c1 (stereo not shown) 64

Complete the entry with inhibition at 1 µM for c1ccc2sc(C34CNCC3C4)nc2c1 (stereo not shown) 72

Complete the entry with inhibition at 1 µM for CC(C)N1CC2CC2(c2cc3ccccc3n2C)C1 (stereo not shown) 13

Complete the entry with inhibition at 1 µM for Fc1ccc2cc(C34CNCC3C4)sc2c1 (stereo not shown) 98

---

- measured-on: human 5-HT transporter (Homo sapiens)
- Construct: expressed in transfected cells; host or cells: HEK 293 cells
- Sequence (P31645 whole entry): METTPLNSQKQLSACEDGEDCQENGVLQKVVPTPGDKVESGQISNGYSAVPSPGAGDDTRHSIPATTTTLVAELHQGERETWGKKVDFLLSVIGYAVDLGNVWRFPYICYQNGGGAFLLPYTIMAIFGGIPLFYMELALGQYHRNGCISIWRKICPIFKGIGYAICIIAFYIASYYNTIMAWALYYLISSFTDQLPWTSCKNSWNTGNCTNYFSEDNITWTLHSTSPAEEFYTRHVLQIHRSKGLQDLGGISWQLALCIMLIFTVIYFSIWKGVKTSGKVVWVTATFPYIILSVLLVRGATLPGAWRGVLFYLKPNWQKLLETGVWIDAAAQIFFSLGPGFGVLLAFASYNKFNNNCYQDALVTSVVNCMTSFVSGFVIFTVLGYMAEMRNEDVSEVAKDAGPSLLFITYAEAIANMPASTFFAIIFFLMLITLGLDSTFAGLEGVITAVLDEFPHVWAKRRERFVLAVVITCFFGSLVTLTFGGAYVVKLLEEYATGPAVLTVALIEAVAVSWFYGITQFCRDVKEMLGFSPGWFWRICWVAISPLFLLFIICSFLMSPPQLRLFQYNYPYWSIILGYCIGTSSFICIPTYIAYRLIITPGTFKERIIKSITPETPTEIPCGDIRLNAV
- method-description: Inhibition of [3H]5-HT uptake in cells expressing the recombinant human 5-HT transporter
- Type: cell-based
- setup-conditions: HEK 293 cells expressing the 5-HT transporter
readout-label: IC50 (nM)
The reply should be a number in nM, with the unit left off.

Please review the entries below; each comes with its answer.
{"molecule": "CN1C[C@H]2C[C@]2(c2cc3ccccc3s2)C1", "measured-on": "human 5-HT transporter (Homo sapiens)", "IC50 (nM)": 263}
{"molecule": "c1ccc2sc([C@]34CNC[C@H]3C4)cc2c1", "measured-on": "human 5-HT transporter (Homo sapiens)", "IC50 (nM)": 193}
{"molecule": "CN1CC2CC2(c2cc3ccccc3s2)C1 (stereo not drawn)", "measured-on": "human 5-HT transporter (Homo sapiens)", "IC50 (nM)": 34}
{"molecule": "CN1CC2CC2(c2cc3ccccc3o2)C1 (stereo not drawn)", "measured-on": "human 5-HT transporter (Homo sapiens)", "IC50 (nM)": 340}
{"molecule": "CN1CC2CC2(c2coc3ccccc23)C1 (stereo not drawn)", "measured-on": "human 5-HT transporter (Homo sapiens)", "IC50 (nM)": 1450}

Complete the entry with IC50 for CN1C[C@H]2C[C@@]2(c2cc3ccccc3s2)C1 54
